target: Histone deacetylase 1 (Homo sapiens, UniProt Q13547)
Sequence (Q13547 whole entry): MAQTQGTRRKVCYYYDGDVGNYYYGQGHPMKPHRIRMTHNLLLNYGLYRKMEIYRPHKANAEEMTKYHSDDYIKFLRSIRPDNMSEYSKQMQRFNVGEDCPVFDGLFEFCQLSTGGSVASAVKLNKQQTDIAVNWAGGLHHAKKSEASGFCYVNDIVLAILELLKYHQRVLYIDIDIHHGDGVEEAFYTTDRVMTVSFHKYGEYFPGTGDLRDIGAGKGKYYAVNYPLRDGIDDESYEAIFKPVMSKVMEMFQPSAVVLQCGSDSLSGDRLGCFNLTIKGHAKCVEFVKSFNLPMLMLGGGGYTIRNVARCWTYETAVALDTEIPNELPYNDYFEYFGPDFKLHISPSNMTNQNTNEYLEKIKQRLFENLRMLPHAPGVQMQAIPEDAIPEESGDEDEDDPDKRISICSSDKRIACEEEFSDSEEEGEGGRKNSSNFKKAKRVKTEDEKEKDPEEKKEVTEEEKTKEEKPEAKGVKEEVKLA

>  <compoundSmiles>
O=C(/C=C/c1ccc2c(c1)C(=O)N(Cc1ccccc1)C2=O)NO

>  <tgt>
Histone deacetylase 1 (Homo sapiens, UniProt Q13547)

>  <IC50 [µM]>
0.572

$$$$

###

Target: Protein deacetylase HDAC6 (Homo sapiens, UniProt Q9UBN7)
Sequence (Q9UBN7 whole entry): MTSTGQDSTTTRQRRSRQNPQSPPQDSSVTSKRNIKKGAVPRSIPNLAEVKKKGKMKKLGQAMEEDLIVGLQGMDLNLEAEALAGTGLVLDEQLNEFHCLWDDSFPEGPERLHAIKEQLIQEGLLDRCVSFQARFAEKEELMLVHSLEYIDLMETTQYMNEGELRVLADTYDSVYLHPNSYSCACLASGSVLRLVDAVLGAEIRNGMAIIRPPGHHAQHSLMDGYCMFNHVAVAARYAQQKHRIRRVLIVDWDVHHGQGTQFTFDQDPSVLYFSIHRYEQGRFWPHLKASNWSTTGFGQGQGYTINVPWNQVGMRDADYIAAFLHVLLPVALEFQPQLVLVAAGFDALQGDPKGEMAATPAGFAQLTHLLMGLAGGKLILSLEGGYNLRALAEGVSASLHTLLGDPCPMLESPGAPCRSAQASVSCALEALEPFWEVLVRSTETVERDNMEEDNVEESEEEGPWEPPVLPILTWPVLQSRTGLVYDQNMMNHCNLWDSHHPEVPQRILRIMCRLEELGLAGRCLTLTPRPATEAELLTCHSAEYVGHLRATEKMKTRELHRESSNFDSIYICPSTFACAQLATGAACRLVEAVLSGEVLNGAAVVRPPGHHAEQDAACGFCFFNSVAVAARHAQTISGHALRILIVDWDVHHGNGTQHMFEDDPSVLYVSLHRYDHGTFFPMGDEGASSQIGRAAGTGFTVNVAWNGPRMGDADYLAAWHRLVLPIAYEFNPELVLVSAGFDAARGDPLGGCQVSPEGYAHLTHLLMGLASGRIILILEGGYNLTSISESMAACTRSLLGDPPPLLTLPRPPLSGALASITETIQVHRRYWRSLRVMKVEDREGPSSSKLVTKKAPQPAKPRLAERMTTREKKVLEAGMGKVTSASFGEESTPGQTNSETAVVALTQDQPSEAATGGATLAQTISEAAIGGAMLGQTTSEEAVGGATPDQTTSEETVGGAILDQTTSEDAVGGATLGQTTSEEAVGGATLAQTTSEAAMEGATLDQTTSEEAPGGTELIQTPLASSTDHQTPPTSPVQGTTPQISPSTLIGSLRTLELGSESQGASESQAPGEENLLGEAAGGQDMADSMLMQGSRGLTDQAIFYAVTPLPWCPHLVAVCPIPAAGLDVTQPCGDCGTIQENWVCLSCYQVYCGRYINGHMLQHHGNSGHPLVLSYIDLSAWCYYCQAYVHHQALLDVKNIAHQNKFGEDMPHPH
pIC50: −log10 of the molar value.
valueKind: pIC50

>  <compoundSmiles>
O=C(/C=C/c1ccc2c(c1)C(=O)N(Cc1ccccc1)C2=O)NO

>  <measurement>
6.15

$$$$
